Origin of measurements: patent US20220356245A1

Catalogue of binders with associated kon
- target_entity: T1, hu-sCD47-6His; extracellular domain of human CD47 antigen with 6His-tag (human)
- T1 construct: also called hCD47-his; soluble hCD47
- run_description: SPR Biacore;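 also: antibodies captured on anti-IgG CM5 chip, soluble His-tagged human CD47 flowed over at rising concentrations, five 10 min injections, flow cell 1 as reference, 1:1 model fit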
Just the number please, in M⁻¹ s⁻¹, no unit attached.

# example entries with known answers
>  <binder>
h20-VH4-VL3 (candidate 20.18) (antibody, human IgG4 S228P, kappa, V domains shown, hIgG4-S228P/kappa; also called h20-H4-L3) VH: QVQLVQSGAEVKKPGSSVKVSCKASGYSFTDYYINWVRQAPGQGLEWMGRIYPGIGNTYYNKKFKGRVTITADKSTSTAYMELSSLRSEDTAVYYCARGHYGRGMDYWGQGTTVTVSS VL: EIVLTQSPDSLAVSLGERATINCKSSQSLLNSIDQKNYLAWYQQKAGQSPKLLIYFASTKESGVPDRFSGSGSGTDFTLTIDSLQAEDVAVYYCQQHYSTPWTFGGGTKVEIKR

>  <kon (M⁻¹ s⁻¹)>
180000

$$$$
>  <binder>
h20-VH3-VL3 (candidate 20.13) (antibody, human IgG4 S228P, kappa, V domains shown, hIgG4-S228P/kappa; also called h20-H3-L3) VH: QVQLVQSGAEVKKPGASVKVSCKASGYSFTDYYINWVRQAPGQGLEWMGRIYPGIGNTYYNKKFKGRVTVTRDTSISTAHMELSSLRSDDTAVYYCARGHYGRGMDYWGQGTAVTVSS VL: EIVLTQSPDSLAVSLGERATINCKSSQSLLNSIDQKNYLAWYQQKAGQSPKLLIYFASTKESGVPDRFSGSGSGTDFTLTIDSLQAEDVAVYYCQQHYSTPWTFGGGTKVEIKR

>  <kon (M⁻¹ s⁻¹)>
214000

$$$$
>  <binder>
h20-VH3-VL4 (candidate 20.14) (antibody, human IgG4 S228P, kappa, V domains shown, hIgG4-S228P/kappa; also called h20-H3-L4) VH: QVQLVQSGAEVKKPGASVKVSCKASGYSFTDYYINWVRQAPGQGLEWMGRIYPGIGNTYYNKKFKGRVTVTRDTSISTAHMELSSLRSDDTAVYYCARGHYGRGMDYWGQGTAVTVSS VL: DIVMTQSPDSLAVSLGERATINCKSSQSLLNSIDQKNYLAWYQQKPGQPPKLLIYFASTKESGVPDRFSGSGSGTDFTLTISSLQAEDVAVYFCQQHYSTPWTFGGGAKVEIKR

>  <kon (M⁻¹ s⁻¹)>
216000

$$$$

Lab note: next binder to report on.
**Query** Consider the binder h20-VH1-VL5 (candidate 20.5) (antibody, human IgG4 S228P, kappa, V domains shown, hIgG4-S228P/kappa; also called h20-H1-L5) VH: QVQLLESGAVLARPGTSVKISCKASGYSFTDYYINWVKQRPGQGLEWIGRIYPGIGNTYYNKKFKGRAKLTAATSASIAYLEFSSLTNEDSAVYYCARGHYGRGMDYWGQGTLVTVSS VL: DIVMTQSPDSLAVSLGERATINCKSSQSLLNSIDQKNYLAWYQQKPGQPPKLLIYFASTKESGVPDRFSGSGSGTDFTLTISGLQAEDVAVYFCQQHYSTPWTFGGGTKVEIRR and give its measured kon.
**Result** 198000
